# assayedSystem: AGE-BSA (Bos taurus)
# Construct: Bovine serum albumin (fraction V) (BSA); from tissue
# Sequence (P02769 25-607): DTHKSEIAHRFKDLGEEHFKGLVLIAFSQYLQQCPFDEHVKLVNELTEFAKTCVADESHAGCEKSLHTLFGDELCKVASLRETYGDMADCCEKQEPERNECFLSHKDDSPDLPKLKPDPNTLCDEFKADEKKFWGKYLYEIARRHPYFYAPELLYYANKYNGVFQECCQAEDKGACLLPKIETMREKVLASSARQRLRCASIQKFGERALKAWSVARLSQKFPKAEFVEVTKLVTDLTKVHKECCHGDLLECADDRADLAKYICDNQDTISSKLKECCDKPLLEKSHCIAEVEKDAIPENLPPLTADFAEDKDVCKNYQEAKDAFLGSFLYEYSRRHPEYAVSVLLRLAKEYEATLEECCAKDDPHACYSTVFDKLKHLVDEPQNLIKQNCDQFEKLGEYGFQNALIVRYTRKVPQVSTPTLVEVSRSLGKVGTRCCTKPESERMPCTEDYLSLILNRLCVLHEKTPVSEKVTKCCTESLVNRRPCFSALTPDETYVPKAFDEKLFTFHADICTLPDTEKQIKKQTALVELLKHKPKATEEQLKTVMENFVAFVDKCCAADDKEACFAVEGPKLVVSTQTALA
# measurementNotes: In-vitro AGE breaking activity by ELISA (16 weeks AGE-BSA incubated with test compound)
# Assay type: biochemical, bovine
# testSettings: comparison in words based on Table 2
measuredAttribute: AGE breaking activity compared to PTB

entrySmiles: O=C(NNC(=O)c1ccc[n+](CC(=O)c2ccc(Cl)s2)c1)c1ccc[n+](CC(=O)c2ccc(Cl)s2)c1
value: superior
--
entrySmiles: O=C(C[n+]1cccc(C(=O)NNc2ccccc2)c1)Nc1ccccc1.[Cl-]
value: superior
--
entrySmiles: O=C(NNC(=O)c1ccc[n+](CC(=O)c2cccs2)c1)c1ccc[n+](CC(=O)c2cccs2)c1.[Cl-].[Cl-]
value: superior
--
entrySmiles: CS(=O)(=O)NNC(=O)c1ccc[n+](CC(=O)c2cc([N+](=O)[O-])cs2)c1.[Br-]
value: superior
--
entrySmiles: O=C(C[n+]1cccc(C(=O)NCCOC(=O)c2ccccc2)c1)Nc1ccccc1.[Cl-]
value: superior

# batch: return AGE breaking activity compared to PTB for each of the 4 compounds below
1. O=C(NNC(=O)c1ccc[n+](CC(=O)c2cccs2)c1)c1ccc[n+](CC(=O)c2cccs2)c1.[Br-].[Br-]
2. CS(=O)(=O)NNC(=O)c1ccc[n+](CC(=O)c2ccc([N+](=O)[O-])s2)c1
3. COCCNC(=O)c1cc(Br)c[n+](CC(=O)c2cccs2)c1
4. Cc1ccc(C(=O)NNC(=O)c2ccc[n+](CC(=O)c3cccs3)c2)c[n+]1CC(=O)c1cccs1

1. superior
2. superior
3. superior
4. superior
